Assay: Therapeutic index, ratio of CyD50 for african green monkey Vero cells to ED50 for 10^-3 MOI Poliovirus 2
Assay type: cell-based
Conditions: read-out: TI
quantity-name: selectivity ratio
Response field accepts a number only; no unit should be typed.

Q. Entry COc1cc(-c2oc3c(OC)c(OC)cc(O)c3c(=O)c2OC)ccc1O [TERNATIN] : reported selectivity ratio = ?
A. 66.6
